experiment: yeast display, Sf9 membrane polyspecificity reagent, FACS + sequencing; frameworks hold sequencing errors
endpoint_name: polyreactivity (PSR sort gate)

• QVQLVESGGGLVQAGGSLRLSCAASGLILRKYAMGWYRQAPGKEREFVAAITQTGSRTYYADSVKVRFTISRDNAKYTVYFQMNSLIPEDTAVYYCNAVNYRSSRDSGYWGQGTQVTVSS = high polyreactivity
• QVQLVESGGGLVQAGGSLRLSCAASGSIFTYYAMGWYRQAPGKERELVADIRWSGGSTYYADSVKGRFTISRDNAKNTVYLQMNSLKPEDTAVYFCNARYYSYWPIYNFDYWGQGTQVTVSS = low polyreactivity
• QVQLVESGGGLVQAGGSLRLSCAASGITFYAYAIGWYRQAPGKERELVAAITSSGGNTYYADSVKGRFTISRDNAKNTVYLQMKSLKPEDTAVYYCNIRRYWWWQMGYWGQGTQVTVSS = high polyreactivity
• QVQLVESGGCLVQAGGSLRLSCAASGIIFYRYAMGWYRQAPGKERELVAAITYSGGRTYYADSVKARFTISRDNAKNTVYLQMNSLKTEDTAVSDCAAAGRFGDYWGQGTQVTVSS = high polyreactivity
• QVQLVESGGGLVQAGGSLRLSCAASGSIFWINAMGWCRQAPGKEREFVADIDVSGGSTYYADSVKGRFTISRDNAKNTVYLQMNSLKPEDTAVYYCAADDYWAYLYYKTSEYYYWGQGTQVTVSS = low polyreactivity
• QVQLVESGGGLVQAGGSLRLSCAASGSIFYTYAMGWYRQAPGKERELVAVISYGGGRTYYADSVKGRFTISRDNAKNTVYLQMNSLKPEDTAVYYCAASYSFYAFSVPYYYWGQGSQVTVSS = high polyreactivity
• QVQLVESGGGLVQAGGSLRLSCAASGQIFVRNAMGWYRQAPGKERELVARISSGGSTNYADSVKGRFTISRDNAKNTVYLQMISLKPEDTAVYYCAARVYKGWPTHYDYWGQGTQVTVSS = high polyreactivity
• QVQLVESGGGLVQAGGSLRLSCAASGSTLRWNTMGWYRQAPGKERQLVARISKSGGSTSYADSVKGRLTISRDNAKNTVYLQMNSLKPEDTAVYYCAKTPSQGYVFSYRWGDYWGQGTQVTVSS = high polyreactivity

---

test: yeast display, Sf9 membrane polyspecificity reagent, FACS + sequencing; frameworks hold sequencing errors
endpoint_name: polyreactivity (PSR sort gate)

* QVQLVESGGGLVQAGGSLRLSCAASGSTFYIYAMGWYRQAPGQERELVATISWSGGSTYYADSVKGRFTISRDNAKNTVYLQMNSLKPEDTAVYYCAVRPGFGRSLWYGYWGQGTQVTVSS | high polyreactivity
* QVQLVESGGGLVQAGGSLRLSCAASGRIFYPYAMGWYRQAPGKERELVAAITTSSARTYYADSVKGRFTISRDNAKNTVYLQMNSLKPEDTAVYYCAVKRGYYTTYRGYGYWGQGTQVTVSS | high polyreactivity
* QVQLVESGGGLVQAGGSLRLSCADSGIIFLEYAMGWYRQAPGKERELVAAISSDDGSSTYYADSVKGRFTISRDNAKNTVYLQMNSLKPEDTAVYYCAAYGGGGYYYDYEYWGQGTQVTVSS | high polyreactivity

---

assay: yeast display, Sf9 membrane polyspecificity reagent, FACS + sequencing; frameworks hold sequencing errors
endpoint_name: polyreactivity (PSR sort gate)

• QVQLVESGGGLVQAGGSLRLSCASSGTLYRYAMGWYIQATGKERELVAAISSNGGSTYYADSVKGRFTISRDNEKNTVYLQMNSLKPEDTAVYYCNALSRRFPLYGFWGQGTQVTVSS = high polyreactivity
• QVQLVETGGGLVQAGGSLRLSCAASGSTFEYNAMGWYRQAPGKERALVAGISSGGSTYYADSVKGRFTISRDNAKNTVYLQMNSLKPEDTAVYYCATSEASFATWDRYTELDYWGQGTQVTVSS = low polyreactivity
• QVQLVESGGGLVQAGGSLRLSCAASGFIFPSYAMGWYRQAPGKERELVAAITSSGGSTYYADSVKGRFTISRDNAKNTVYLQMNSLKPEDTAVYYCNARYPGRARRYNYWGQGTQVTVSS = high polyreactivity
• QVQLVESGGGLVQAGGSLRLSCAASGSIFRQYAMGWYRQAPGKERELVATISRSGGSTYYADSVKGRFTISRDNAKNTVYLQMNSLKPEDTAVYYCAASRYNKSYREWWVGSWGQGTQVTVSS = high polyreactivity
• QVQLVESGGGLVQAGGSLRLSCAASGRIFFSTVMGWDRQAPGKERELVAAISWSGGSTYYADSVKGRFTISRDNAKNTVYLQMNSLKPEDTAVYYCNRLSASVQYGYWGQGTQVTVSS = high polyreactivity
• QVQLVESGGGLVQAGGSLLLSCAASGSTFAWYAMGWNRQAPGKERELVAAISRTGRTYYADSVKGRFTISRDNAKNTVYLEMNSLKPEDTAVYYCAARIERFYRDQRYDYWGQGTQVTVSS = high polyreactivity
• QVQLQESGGGLVQAGGSLRLSCAASGSITRYYDMGWYRQAPGKEREFVAGISGGAITYYADSVKGRFTISRDNAKNTVYLQMNSLKPEDTAVYYCAADTGVYQYHSYWGQGTQVTVSS = low polyreactivity
• QVQLVESGGGLVQAGGSLRLSCAASGSIIGFYVMGWYRQAPGKERELVAGISDSGGRTYYADSVKGRFTISRDNAKNTVYLQMNSLKPEDTAVYYCAAEAYKHGVWDYDYWGQGTQVTVSS = low polyreactivity
• QVQLVESGGGLVQAGGSLRLSCAASGFTFGDYAMGWYRQAHGKERELVAAINGRSGSTYYPDSVNGRFTISRDNAKNTVYLQMNSLKPEDTAVYYCATRWRLPSRSNFDYWGQGTQVTLSS = low polyreactivity
